Readings of Phytotoxicity Go for the listed compounds
Test system: cotton (Go)
Test: Test Example 4: crop plant selectivity by upland field soil treatment (cotton), phytotoxicity
Type: in vivo
Parameters: scale not given here
Settings: dose 6.3 g ai/10 a, evaluated 21st day after application

compound | Phytotoxicity Go
C#CCn1c(=O)sc2cc(F)c(-c3ccc(C(F)(F)F)n(C)c3=O)cc21 | 1
COc1cc(Cl)cc(F)c1-c1ccc(C(F)(F)F)n(C)c1=O | 0
C#CC(C)Oc1cc(Cl)cc(F)c1-c1ccc(C(F)(F)F)n(C)c1=O (stereo not shown) | 0
C#CCOc1cc(-c2ccc(C(F)(F)F)n(C)c2=O)c(Cl)cc1Cl | 1
COc1cc(-c2ccc(C(F)(F)F)n(C)c2=O)c(Cl)cc1Cl | 1
CCOC(=O)CON=Cc1cc(-c2ccc(C(F)(F)F)n(C)c2=O)c(F)cc1Cl | 1
Cn1c(C(F)(F)F)ccc(-c2cc(OCCCl)c(Cl)cc2F)c1=O | 0
C=CCN1C(=O)COc2cc(Cl)c(-c3ccc(C(F)(F)F)n(C)c3=O)cc21 | 1
CCc1cc2c(-c3cn(C)c(C(F)(F)F)cc3=O)c(F)cc(Cl)c2o1 | 0
C#CCSc1cc(-c2ccc(C(F)(F)F)n(C)c2=O)c(F)cc1Cl | 1
COCCOc1cc(-c2ccc(C(F)(F)F)n(C)c2=O)c(F)cc1Cl | 1
CC(C)C(=O)c1cc(-c2ccc(C(F)(F)F)n(C)c2=O)c(F)cc1Cl | 0
COCc1cc2c(-c3ccc(C(F)(F)F)n(C)c3=O)c(F)cc(Cl)c2o1 | 1
COc1cc(-c2ccc(C(F)(F)F)n(N)c2=O)c(F)cc1Cl | 0
C#CCOc1cc(-c2ccc(C(F)(F)F)n(N)c2=O)c(F)cc1Cl | 1
CON=C(C)c1cc(-c2ccc(C(F)(F)F)n(C)c2=O)c(F)cc1Cl | 0
CCN1C(=O)COc2cc(F)c(-c3ccc(C(F)(F)F)n(C)c3=O)cc21 | 0
Cn1c(C(F)(F)F)ccc(-c2cc(Cl)c(Cl)cc2F)c1=O | 1
Cn1c(C(F)(F)F)ccc(-c2cc(Br)c(Cl)cc2F)c1=O | 1
